For each entry below, report its pKd value.
Biological target: T1, PriB wild type (Neisseria gonorrhoeae FA1090, UniProt Q5F924 1-100)
T1 sequence: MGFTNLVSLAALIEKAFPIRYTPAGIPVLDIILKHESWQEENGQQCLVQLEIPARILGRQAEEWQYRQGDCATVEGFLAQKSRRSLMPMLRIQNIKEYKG
Test: fluorescence anisotropy
// pKd: -log10(molar conc.)

Exam item: Look at this binder and give its reported pKd. GCCGTGATCACCAATGCAGATTGACGAACCTTTGCC (ssDNA) [36-base fluoro-ssDNA]
Marked response: 6.32

Exam item: Look at this binder and give its reported pKd. GCCGTGATCACCAATGCAGATTGACGAACCTTTGCTCCAGTAACC (ssDNA) [45-base fluoro-ssDNA]
Marked response: 5.99

Exam item: Look at this binder and give its reported pKd. AAGCACAATTACCCACGC (ssDNA) [18-base fluoro-ssDNA]
Marked response: 6.18

The values you see were collected from paper PMC2811003.
